Assay type: in vivo
Conditions: male, C57BL/6N, mouse, spleen, oral, 5 g/l, Concentration in spleen, drink at 5 g/l
Endpoint Label: concentration at 1 week (ng/g)
Hi! Could you send only the number? It should be in ng/g, unit omitted.

Identify concentration at 1 week associated with the compound COc1cccc(CN)c1O [3-MoSA, 3-methoxy-2-hydroxybenzylamine]
82200

---

Format: in vivo
Settings: male, C57BL/6N, mouse, liver, ip, 200 mg/kg
Endpoint Label: MRT inf (h)
Hi! Could you send only the number? It should be in h, unit omitted.

Identify MRT inf associated with the compound COc1cccc(CN)c1O [3-MoSA, 3-methoxy-2-hydroxybenzylamine]
1
